# Test system: K-562 leukemia
# Test details: NCI-60 one-dose screen, 48 h (100 = growth as untreated, 0 = no growth, -100 = all killed)
# Experimental parameters: 10 µM unless noted
The panel holds about 83,000 compounds, 20% with a hit somewhere; the sample as a whole holds those more often. The source made the active and inactive calls. How the source made its calls: active means growth percent below 10; inactive means the rest.
Measured property: growth

* CCOC(=O)c1sc(-c2ccc(OS(=O)(=O)C[C@]34CCC(CC3=O)C4(C)C)c(C=O)c2)nc1C | 7.5% (active)
* COC(=O)c1c2c(c(C)[n+]([O-])c1C)C(=O)C=C(NCc1ccc(F)c(F)c1)C2=O | 1.15% (active)

For this molecule ( O=S(=O)(c1ccc(NC(=S)NC23CC4CC(CC(C4)C2)C3)cc1)N1CCCCC1 ), measured growth is 7.73% (active)

For this molecule ( CCOC(=O)c1cc2c(n1Cc1cc(OC)cc(OC)c1)-c1oncc1CCC2 ), measured growth is 7.66% (active)
